study_system: hVMAT2 (Homo sapiens, UniProt Q05940)
Sequence (Q05940 whole entry, the tested form may be a part): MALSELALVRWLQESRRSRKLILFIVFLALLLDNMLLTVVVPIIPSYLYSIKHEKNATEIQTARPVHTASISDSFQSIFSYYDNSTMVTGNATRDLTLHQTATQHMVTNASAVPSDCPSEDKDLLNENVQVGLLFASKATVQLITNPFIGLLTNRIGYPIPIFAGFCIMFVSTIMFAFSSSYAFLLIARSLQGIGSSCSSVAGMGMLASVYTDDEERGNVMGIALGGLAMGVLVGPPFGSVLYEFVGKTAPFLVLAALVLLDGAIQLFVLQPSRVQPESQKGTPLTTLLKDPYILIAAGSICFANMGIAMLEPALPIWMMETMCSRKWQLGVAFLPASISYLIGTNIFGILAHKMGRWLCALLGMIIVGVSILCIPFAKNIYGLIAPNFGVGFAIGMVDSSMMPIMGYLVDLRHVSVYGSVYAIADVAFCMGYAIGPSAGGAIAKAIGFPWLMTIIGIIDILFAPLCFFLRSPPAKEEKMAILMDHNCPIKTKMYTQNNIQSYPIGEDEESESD
assay_overview: Superfusion release of preloaded [3H]NE from HEK-hVMAT2 cells
Type: cell-based
condition_notes: read-out: Drug-induced release of [3H]NE EC50 ± sem, hVMAT2; superfusion
readout_name: pEC50
Please report pEC50 as the negative decimal logarithm of the molar concentration, giving only the number.

Give pEC50 (hVMAT2 (Homo sapiens, UniProt Q05940)) of the following compound: CCCC(C(=O)c1ccc2c(c1)OCO2)N1CCCC1 (stereo not drawn) [MDPV, 3,4-methylenedioxypyrovalerone]
3.83

Notebook: pull reported pEC50 for hVMAT2 (Homo sapiens, UniProt Q05940), entry CNC(C)C(=O)c1ccccc1 (stereo not drawn) [Methcathinone, methcathinone, reference compound]
4.94

Missing value: pEC50, hVMAT2 (Homo sapiens, UniProt Q05940), entry CNC(C)Cc1ccc2c(c1)OCO2 (stereo not drawn) [MDMA, 3,4-methylenedioxymethylamphetamine, reference compound] . Fill in?
3.94

Can you look up pEC50 on hVMAT2 (Homo sapiens, UniProt Q05940) for CCC(NC)C(=O)c1ccc2c(c1)OCO2 (stereo not drawn) [Butylone] ?
5.36

----------
study_system: hVMAT2 (Homo sapiens)
assay_overview: Inhibition of [3H]DHTB binding, HEK-hVMAT2 membranes
Listing: Ki of selected molecules

The following molecules have reported results that may help.
| molecule | study_system | Ki |
| --- | --- | --- |
| CN[C@@H](C)Cc1ccccc1 [METH, (+)methamphetamine, reference compound] | hVMAT2 (Homo sapiens) | 920 µM |
| CNC(C)C(=O)c1ccc(C)cc1 (stereo not drawn) [Mephedrone, 4-methyl-N-methylcathinone] | hVMAT2 (Homo sapiens) | > 1000 µM |

Entry CNC(C)C(=O)c1ccc2c(c1)OCO2 (stereo not drawn) [Methylone, 3,4-methylenedioxy-N-methylcathinone] has what Ki?
> 1000 µM

----------
study_system: human DA D1 receptor (Homo sapiens)
Sequence (P21728 whole entry): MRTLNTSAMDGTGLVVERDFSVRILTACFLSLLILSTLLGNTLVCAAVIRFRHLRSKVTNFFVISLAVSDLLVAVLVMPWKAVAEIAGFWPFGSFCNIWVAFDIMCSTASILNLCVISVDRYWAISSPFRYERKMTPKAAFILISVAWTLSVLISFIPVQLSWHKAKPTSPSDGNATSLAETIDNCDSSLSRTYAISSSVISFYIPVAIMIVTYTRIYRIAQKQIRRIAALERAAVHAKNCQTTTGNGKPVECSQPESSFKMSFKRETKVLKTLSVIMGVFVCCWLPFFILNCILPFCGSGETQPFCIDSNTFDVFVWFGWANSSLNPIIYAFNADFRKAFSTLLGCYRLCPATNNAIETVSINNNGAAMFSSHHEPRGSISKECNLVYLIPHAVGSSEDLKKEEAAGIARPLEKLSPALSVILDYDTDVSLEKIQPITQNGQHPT
assay_overview: [3H]SCH23390 binding, LhD1 cells
condition_notes: test drugs up to the maximal concentration tested (10 µM)
readout_name: affinity for the [3H]SCH23390 binding site, DA D1 receptor

Please review the entries below; each comes with its answer.
| compound | observed_measurement |
| --- | --- |
| CN1CCc2cc(Cl)c(O)cc2[C@@H](c2ccccc2)C1 | high affinity |
| CN[C@@H](C)Cc1ccccc1 [METH, (+)methamphetamine, reference compound] | no measurable affinity |
| Oc1cc2c(cc1O)C(c1ccccc1)CNCC2 (centres unmarked) | high affinity |
| CNC(C)C(=O)c1ccccc1 (centres unmarked) [Methcathinone, methcathinone, reference compound] | no measurable affinity |

Next compound, please.
Test system human DA D1 receptor (Homo sapiens); read-out affinity for the [3H]SCH23390 binding site, DA D1 receptor; what value for CNC(C)Cc1ccc2c(c1)OCO2 (centres unmarked) [MDMA, 3,4-methylenedioxymethylamphetamine, reference compound] ?
no measurable affinity

----------
study_system: hSERT (Homo sapiens, UniProt P31645)
Sequence (P31645 whole entry, the tested form may be a part): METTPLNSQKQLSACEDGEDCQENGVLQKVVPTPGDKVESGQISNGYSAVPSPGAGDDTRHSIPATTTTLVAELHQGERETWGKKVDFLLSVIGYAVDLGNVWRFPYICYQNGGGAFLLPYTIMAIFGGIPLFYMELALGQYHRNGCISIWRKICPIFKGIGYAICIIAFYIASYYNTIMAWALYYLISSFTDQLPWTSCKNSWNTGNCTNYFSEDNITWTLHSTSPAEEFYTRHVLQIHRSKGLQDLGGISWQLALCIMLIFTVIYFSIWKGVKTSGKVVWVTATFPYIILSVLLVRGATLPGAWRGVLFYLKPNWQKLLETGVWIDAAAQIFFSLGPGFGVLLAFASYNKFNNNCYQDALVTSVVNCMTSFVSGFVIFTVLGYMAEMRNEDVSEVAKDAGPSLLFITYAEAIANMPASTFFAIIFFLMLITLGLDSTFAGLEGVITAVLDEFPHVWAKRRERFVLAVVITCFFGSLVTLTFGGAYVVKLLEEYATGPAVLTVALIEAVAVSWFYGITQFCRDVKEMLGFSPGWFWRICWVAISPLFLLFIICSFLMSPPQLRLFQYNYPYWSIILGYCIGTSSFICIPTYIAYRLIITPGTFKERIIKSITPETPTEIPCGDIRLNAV
assay_overview: Superfusion release of preloaded [3H]5-HT from HEK-hSERT cells
Assay type: cell-based
readout_name: % maximum release ± sem, hSERT [3H]5-HT (%)
# output: bare number, implied unit %

| compound | % maximum release ± sem, hSERT [3H]5-HT [%] |
| --- | --- |
| CN[C@@H](C)Cc1ccccc1 [METH, (+)methamphetamine, reference compound] | 97.6 |
| CCCC(C(=O)c1ccc2ccccc2c1)N1CCCC1 (centres unmarked) | 20.1 |
| CNC(C)C(=O)c1ccc(C)cc1 (centres unmarked) | 53 |
| CNC(C)Cc1ccc2c(c1)OCO2 (centres unmarked) [MDMA, 3,4-methylenedioxymethylamphetamine, reference compound] | 74 |
| CC(N)Cc1ccc(Cl)cc1 (centres unmarked) [PCA, p-chloroamphetamine, reference compound] | 106.4 |

Which measured % maximum release ± sem, hSERT [3H]5-HT belongs to CNC(C)C(=O)c1ccc2c(c1)OCO2 (centres unmarked) , tested on hSERT (Homo sapiens, UniProt P31645)?
78

Form field: % maximum release ± sem, hSERT [3H]5-HT recorded for CNC(C)C(=O)c1ccc(F)cc1 (centres unmarked) with hSERT (Homo sapiens, UniProt P31645) (enter value)
39.3

Checklist item: % maximum release ± sem, hSERT [3H]5-HT tested on hSERT (Homo sapiens, UniProt P31645), entry CCC(NC)C(=O)c1ccc2c(c1)OCO2 (centres unmarked) , value?
30.1

Hello, the source for this data is paper PMC3692398, in case you need it.
